Entry source: paper PMC6792352

Experiment: in vitro
Details: rat, gh3-tre-luc cells, AC50 (uM) modified / 1000
Structures can show the parent of a compound that is named as a salt.
CC50 at 24 h for assorted compounds

# annotated cases, reported CC50 at 24 h shown
[[record]]
compound = "CN(C)C1CSSSC1 [Thiocyclam oxalate]"
observed_measurement = "> 90 µM"

[[record]]
compound = "Cc1ccccc1N1CCN(CCc2nnc3n2CCCC3)CC1 [Dapiprazole hydrochloride]"
observed_measurement = "> 50 µM"


IN: Which CC50 at 24 h is reported for this compound? CC(=O)O[C@H]1C[C@@]2(C)[C@@H](C[C@@H](O)[C@H]3[C@@]4(C)CC[C@@H](O)[C@@H](C)[C@@H]4CC[C@@]32C)/C1=C(\CCC=C(C)C)C(=O)O [Fusidate sodium]
OUT: > 50 µM

IN: Cool, now CNS(=O)(=O)CCc1ccc2[nH]cc(C3CCN(C)CC3)c2c1 [Naratriptan hydrochloride]
OUT: > 50 µM

====

Test: in vitro
Details: rat, gh3-tre-luc cells, AC50 (uM) modified / 1000, Tox21_110001=Tox21_201319; viability, 1 nM T3 present, 24 h
MEASUREMENT KIND: CC50 at 24 h

IN: Which CC50 at 24 h is reported for this molecule? Cc1cc(Cl)ccc1OCCCC(=O)O [MCPB]
OUT: > 100 µM

====

Test: in vitro
Conditions: rat, gh3-tre-luc cells, AC50 (uM) modified / 1000, Tox21_110001=Tox21_200703; viability, 1 nM T3 present, 24 h
MEASUREMENT KIND: CC50 at 24 h

IN: Which CC50 at 24 h is reported for this molecule? Nc1ccccc1C(=O)O
OUT: > 90 µM

====

Tested on: GH3-TRE-Luc cell line
Settings: read-out: AC50 (uM) modified / 1000; Tox21_110001=Tox21_202150; viability, 1 nM T3 present, 24 h
MEASUREMENT KIND: CC50 (µM)
Just the number in µM, nothing appended.

IN: Which CC50 is reported for this molecule? c1cc(C(c2ccc(OCC3CO3)cc2)C(c2ccc(OCC3CO3)cc2)c2ccc(OCC3CO3)cc2)ccc1OCC1CO1 (stereo not shown)
OUT: 25.2

====

Experiment: in vitro
Settings: rat, gh3-tre-luc cells, AC50 (uM) modified / 1000
Where a name gives a salt, the structure may show the parent alone.
CC50 at 24 h for assorted compounds

[[record]]
compound = "COc1cccc(OC)c1C(=O)N[C@@H]1C(=O)N2[C@@H]1SC(C)(C)[C@@H]2C(=O)O [Methicillin sodium hydrate]"
observed_measurement = "> 50 µM"

[[record]]
compound = "CCCCCCCO [1-Heptanol]"
observed_measurement = "> 90 µM"

[[record]]
compound = "CC(C)COC(=O)c1ccc(N)cc1 [Isocaine]"
observed_measurement = "> 50 µM"

[[record]]
compound = "[O-][n+]1ccc(Cl)cc1 [4-Chloropyridine 1-oxide]"
observed_measurement = "> 100 µM"

[[record]]
compound = "Cc1cc(C)cc(C(=O)OC2C[C@H]3CC[C@@H](C2)N3C)c1 (stereo partly shown)"
observed_measurement = "22.4 µM"


IN: Which CC50 at 24 h is reported for this compound? O=C(O)c1ccc([N+](=O)[O-])cc1 [4-Nitrobenzoic acid]
OUT: > 90 µM

IN: Cool, now O=c1c(O)c(-c2ccc(O)cc2)oc2cc(O)cc(O)c12 [Kaempferol]
OUT: 66.6 µM

IN: Cool, now CCCn1cnc2c1c(=O)n(CCCCC(C)=O)c(=O)n2C [Propentofylline]
OUT: > 50 µM

IN: Cool, now C[N+]1(CCCCC[N+]2(C)CCCC2)CCCC1 [Pentolinium ditartrate]
OUT: > 50 µM

IN: Cool, now CN1CCCN=C1/C=C/c1cccs1 [Pyrantel tartrate]
OUT: > 50 µM

====

AC50 for assorted molecules
Target: human TRβ ligand-binding domain (Homo sapiens)
Sequence (P10828 217-461 limits assumed): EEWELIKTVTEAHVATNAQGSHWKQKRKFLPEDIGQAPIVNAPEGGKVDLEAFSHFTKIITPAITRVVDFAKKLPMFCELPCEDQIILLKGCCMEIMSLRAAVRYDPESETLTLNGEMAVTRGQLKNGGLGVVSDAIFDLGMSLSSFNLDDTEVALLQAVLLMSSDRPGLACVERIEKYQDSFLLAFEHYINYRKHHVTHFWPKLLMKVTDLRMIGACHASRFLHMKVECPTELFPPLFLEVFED
Test: TRb-bla agonist mammalian one-hybrid beta-lactamase assay (TOX21_TRB_BLA_Agonist_Followup_ratio, aeid 2236)
Format: cell-based
Parameters: host or cells: GeneBLAzer UAS-bla HEK 293T
Conditions: HEK 293T one-hybrid, agonist mode; read-out: TRb-bla-Ag AC50

# annotated cases, reported AC50 shown
[[record]]
molecule = "CSCC[C@H](NC(=O)[C@H](Cc1ccc(OS(=O)(=O)O)cc1)NC(=O)[C@@H](N)CC(=O)O)C(=O)NCC(=O)N[C@@H](Cc1c[nH]c2ccccc12)C(=O)N[C@@H](CCSC)C(=O)N[C@@H](CC(=O)O)C(=O)N[C@@H](Cc1ccccc1)C(N)=O [Sincalide, reference compound]"
observed_measurement = "> 92 µM"

[[record]]
molecule = "C=C(c1ccc(C(=O)O)cc1)c1cc2c(cc1C)C(C)(C)CCC2(C)C [Bexarotene, reference compound]"
observed_measurement = "> 92 µM"


IN: Which AC50 is reported for this molecule? CC(C)(C)CC(C)(C)c1ccc(O)c(Cc2ccc(Cl)cc2Cl)c1 [Clofoctol, reference compound]
OUT: > 92 µM

IN: Cool, now O=C(O)Cc1cc(I)c(Oc2cc(I)c(O)c(I)c2)c(I)c1 [Tetrac, 3,3ʹ,5,5ʹ-tetraiodothyroacetic acid]
OUT: 0.0209 µM

====

Assay: in vitro
Settings: rat, gh3-tre-luc cells, AC50 (uM) modified / 1000
Where a name gives a salt, the structure may show the parent alone.
CC50 at 24 h for assorted compounds

[[record]]
compound = "Cc1ccc(S(=O)(=O)NC(=O)NN2CCCCCC2)cc1 [Tolazamide]"
observed_measurement = "> 90 µM"

[[record]]
compound = "COCc1ccc(COC)cc1"
observed_measurement = "> 90 µM"

[[record]]
compound = "CNC(=O)Oc1ccccc1OC(C)C"
observed_measurement = "> 90 µM"

[[record]]
compound = "C[N+]1(CCF)[C@@H]2CC[C@H]1CC(OC(=O)C(O)(c1ccccc1)c1ccccc1)C2 (some centres unmarked) [Flutropium bromide]"
observed_measurement = "> 50 µM"


Next:
IN: Which CC50 at 24 h is reported for this compound? CC(C(=O)O)c1cccc(Oc2ccccc2)c1 (centres unmarked) [Fenoprofen calcium salt dihydrate]
OUT: > 20 µM

====

System: GH3-TRE-Luc cell line
Conditions: read-out: AC50 (uM) modified / 1000; Tox21_110001=Tox21_110259; viability, 1 nM T3 present, 24 h
MEASUREMENT KIND: CC50
The reply should read as a number followed by its unit.

IN: Which CC50 is reported for this molecule? NC(=O)c1ncn([C@@H]2O[C@H](CO)[C@@H](O)[C@H]2O)n1 [Ribavirin]
OUT: 40.1 µM

====

System: GH3-TRE-Luc cell line
Conditions: read-out: AC50 (uM) modified / 1000; Tox21_110001=Tox21_300713; viability, 1 nM T3 present, 24 h
MEASUREMENT KIND: CC50

IN: Which CC50 is reported for this compound? CCc1cccc(CC)c1N(COC)C(=O)CCl
OUT: 78.7 µM

====

Experiment: in vitro
Details: rat, gh3-tre-luc cells, AC50 (uM) modified / 1000, Tox21_110001=Tox21_201491; viability, 1 nM T3 present, 24 h
MEASUREMENT KIND: CC50 at 24 h

IN: Which CC50 at 24 h is reported for this molecule? CCCCC(CC)COC(=O)Cl (stereo not shown) [2-Ethylhexyl chloroformate]
OUT: > 90 µM

====

CC50 at 24 h for assorted compounds
Experiment: in vitro
Conditions: rat, gh3-tre-luc cells, AC50 (uM) modified / 1000

# annotated cases, reported CC50 at 24 h shown
[[record]]
compound = "CCCCCCCCCCCCCCCC[N+](C)(C)Cc1ccccc1 [Benzylhexadecyldimethylammonium chloride]"
observed_measurement = "21.5 µM"

[[record]]
compound = "CN(C)C(=O)Oc1cccc([N+](C)(C)C)c1 [Neostigmine bromide]"
observed_measurement = "> 50 µM"

[[record]]
compound = "Cc1ccc(S(=O)(=O)O)c(C)c1 [Sodium m-xylene-4-sulfonate]"
observed_measurement = "> 90 µM"

[[record]]
compound = "Clc1cccc(Cl)c1"
observed_measurement = "> 90 µM"

[[record]]
compound = "CCOC(=O)C(C)Oc1ccc(Oc2nc3ccc(Cl)cc3o2)cc1 (stereo not drawn)"
observed_measurement = "> 90 µM"


IN: Which CC50 at 24 h is reported for this compound? CC(C)c1ccccc1C(C)C
OUT: 88.9 µM

IN: Cool, now C=C1/C(=C\C=C2/CCC[C@]3(C)[C@@H]([C@H](C)OCCC(C)(C)O)CC[C@@H]23)C[C@@H](O)C[C@@H]1O
OUT: > 50 µM

IN: Cool, now CC(C)(C)C(=O)Cl [2,2-Dimethylpropanoyl chloride]
OUT: > 90 µM

IN: Cool, now NCCOCCOCCN
OUT: > 90 µM

====

Assay: in vitro
Settings: rat, gh3-tre-luc cells, AC50 (uM) modified / 1000, Tox21_110001=Tox21_201254; viability, 1 nM T3 present, 24 h
MEASUREMENT KIND: CC50 at 24 h

IN: Which CC50 at 24 h is reported for this compound? O=P(OCCCl)(OCCCl)OCCCl [Tris(2-chloroethyl) phosphate]
OUT: > 90 µM
